Test: MTT cell viability assay, U-937
Format: cell-based
Conditions: human, U-937 cells (monocytes)
measurement_type: IC50 at 72 h (µM)
Respond numerically; units are µM and should not be typed.

structure_smiles: CC[N+](C)(CC)CC/N=C1\C[C@H]2CC[C@]1(C)C2(C)C
value_reported: 58.6

With those in mind, consider the next molecule.
Look up IC50 at 72 h for this molecule: CC[N+](CC)(CCCCCCCC[N+](CC)(CC)CC/N=C1\C[C@H]2CC[C@]1(C)C2(C)C)CC/N=C1\C[C@H]2CC[C@]1(C)C2(C)C
67.2

---

Experiment: MTT cell viability assay, U-937
Format: cell-based
Conditions: human, U-937 cells (monocytes)
measurement_type: IC50 at 72 h
Answer as a quantity: numeral, then unit.

structure_smiles: CC[N+](CC)(CCCCCCCCCCCC[N+](CC)(CC)CC/N=C1\C[C@H]2CC[C@]1(C)C2(C)C)CC/N=C1\C[C@H]2CC[C@]1(C)C2(C)C
IC50 at 72 h: 15.9 µM
//
structure_smiles: CC[N+](CC)(CCCCC[N+](CC)(CC)CC/N=C1\C[C@H]2CC[C@]1(C)C2(C)C)CC/N=C1\C[C@H]2CC[C@]1(C)C2(C)C
IC50 at 72 h: 95.8 µM
//
structure_smiles: CC[N+](CC)(CC/N=C1\C[C@H]2CC[C@]1(C)C2(C)C)Cc1ccc(C[N+](CC)(CC)CC/N=C2\C[C@H]3CC[C@]2(C)C3(C)C)cc1
IC50 at 72 h: 54.9 µM

Could you tell me which IC50 at 72 h is on file for CC[N+](CC)(CCCCCCCCC[N+](CC)(CC)CC/N=C1\C[C@H]2CC[C@]1(C)C2(C)C)CC/N=C1\C[C@H]2CC[C@]1(C)C2(C)C ?
58.6 µM

Requested field: IC50 at 72 h. Item: CC[N+](CC)(CCCCCCCCCC[N+](CC)(CC)CC/N=C1\C[C@H]2CC[C@]1(C)C2(C)C)CC/N=C1\C[C@H]2CC[C@]1(C)C2(C)C
53.6 µM

---

Test system: E. coli/pRAC-gfp
Conditions: 150 μM
measurement_type: Toxic and mutagenic effects on indicator cells E. coli/pRAC-gfp (in words)

structure_smiles: CC[N+](CC)(CCCCCCCCCCCC[N+](CC)(CC)CC/N=C1\C[C@H]2CC[C@]1(C)C2(C)C)CC/N=C1\C[C@H]2CC[C@]1(C)C2(C)C
assay_system: E. coli/pRAC-gfp
value_reported: highly toxic
//
structure_smiles: CC[N+](CC)(CCCCCCCCCC[N+](CC)(CC)CC/N=C1\C[C@H]2CC[C@]1(C)C2(C)C)CC/N=C1\C[C@H]2CC[C@]1(C)C2(C)C
assay_system: E. coli/pRAC-gfp
value_reported: highly toxic
//
structure_smiles: CC[N+](CC)(CCCCCCCC[N+](CC)(CC)CC/N=C1\C[C@H]2CC[C@]1(C)C2(C)C)CC/N=C1\C[C@H]2CC[C@]1(C)C2(C)C
assay_system: E. coli/pRAC-gfp
value_reported: highly toxic

---

Experiment: MTT cell viability assay, MT-4
Format: cell-based
Settings: human, MT-4 cells
measurement_type: IC50 at 72 h (µM)
API: value field is a number in µM; no unit string.

structure_smiles: CC[N+](CC)(CCCCCCCCCCCC[N+](CC)(CC)CC/N=C1\C[C@H]2CC[C@]1(C)C2(C)C)CC/N=C1\C[C@H]2CC[C@]1(C)C2(C)C
IC50 at 72 h / µM: 40.4

State the recorded IC50 at 72 h for this entry: CC[N+](CC)(CC/N=C1\C[C@H]2CC[C@]1(C)C2(C)C)Cc1ccc(C[N+](CC)(CC)CC/N=C2\C[C@H]3CC[C@]2(C)C3(C)C)cc1
40.5

Reference for the values: paper PMC7126328
